These data points were gathered from patent US20060263802A1.

Test system: human monoclonal antibody CRJB
Format: binding
Could you please mark Y for values of Binding of CRJB (10 μg/ml) to looped/cyclic peptide (PEPSCAN-ELISA signal) below 80 and N for values at or above it?

See these solved cases before continuing.
CRAAYNWKMAGDPRY: Y
VKTTKESLVIISPSV: N
GYVTTTFKRKHFRPT: N
HSRVFPSGKCSGVAV: N
MELKVGYILAIKMNG: N
RTVKTTKESLVIISP: Y
KVGYILAIKMNGFTC: Y
VAVSSTYCSTNHDYT: N
PNNLVVEDEGCTNLS: Y
PSVADLDPYDRSLHS: Y

Threshold test, Binding of CRJB (10 μg/ml) to looped/cyclic peptide (PEPSCAN-ELISA signal) < 80: `DEGCTNLSGFSYMEL`
Y

Threshold test, Binding of CRJB (10 μg/ml) to looped/cyclic peptide (PEPSCAN-ELISA signal) < 80: `DYRWLRTVKTTKESL`
Y

Threshold test, Binding of CRJB (10 μg/ml) to looped/cyclic peptide (PEPSCAN-ELISA signal) < 80: `TTTFKRKHFRPTPDA`
N

Threshold test, Binding of CRJB (10 μg/ml) to looped/cyclic peptide (PEPSCAN-ELISA signal) < 80: `NHDYTIWMPENPRLG`
N
